- System: AABA1060 (clinical isolate of Acinetobacter baumannii)
- test protocol: MIC broth microdilution, AABA1060
- Assay type: cell-based
- assay conditions: Acinetobacter baumannii, read-out: MIC AABA1060
- Procedure: Bacterial isolates were cultivated from −70° C. frozen stocks by overnight passages at 35° C. in ambient air on Mueller-Hinton agar (Beckton Dickinson, Franklin Lakes, N.J.). […] Minimum Inhibitory Concentrations (MICs) were determined by the broth microdilution method in accordance with the Clinical and Laboratory Standards Institute (CLSI) guidelines. […]
readout: MIC

> print(dat)
                                   compound  readout          result
1  C[C@@H](O)[C@H](NC(=O)c1ccc(C#CC#Cc2ccncc2)cc1)C(=O)NO      MIC  16 to 64 µg/mL
2  C[C@@H](O)[C@H](NC(=O)c1ccc(C=C(F)C#Cc2ccc(CN3CCOCC3)cc2)cc1)C(=O)NO      MIC   2 to 16 µg/mL
3  C[C@@H](O)[C@H](NC(=O)c1ccc(C#CC#Cc2cncn2C)cc1)C(=O)NO      MIC  16 to 64 µg/mL
4  C[C@@H](NCC(=O)N[C@H](C)[C@H](NC(=O)c1ccc(C#C/C=C/c2ccccc2)cc1)C(=O)NO)c1ccccc1      MIC  16 to 64 µg/mL
5  CC(C)CC#CC#Cc1ccc(C(=O)N[C@H](C(=O)NO)[C@@H](C)N)cc1      MIC   2 to 16 µg/mL

Prompt: Report MIC for "O=C(N[C@@H](Cn1cncn1)C(=O)NO)c1ccc(/C=C/C#Cc2ccc(CN3CCOCC3)cc2)cc1"
Response: 16 to 64 µg/mL

Prompt: Report MIC for "Cn1cc(C#CC#Cc2ccc(C(=O)N[C@H](C(=O)NO)C(C)(C)O)cc2)cn1"
Response: 2 to 16 µg/mL

Prompt: Report MIC for "Cn1cnc(C#CC#Cc2ccc(C(=O)N[C@H](C(=O)NO)C(C)(C)N)cc2)c1"
Response: 2 to 16 µg/mL

Prompt: Report MIC for "C[C@@H](N)[C@H](NC(=O)c1ccc(C#Cc2ccc(CNCC(F)(F)F)cc2)cc1)C(=O)NO"
Response: 2 to 16 µg/mL

Prompt: Report MIC for "CC(C)(O)[C@H](NC(=O)c1ccc(C#C/C=C/c2ccc(CO)cc2)cc1)C(=O)NO"
Response: < 2 µg/mL

Prompt: Report MIC for "CCOCc1ccc(C#Cc2ccc(C(=O)N[C@H](C(=O)NO)C(C)(C)N)cc2)cc1"
Response: < 2 µg/mL

---

- Test system: APAE001 (ATCC27853)
- test protocol: MIC broth microdilution, APAE001
- Format: cell-based, P. aeruginosa
- assay conditions: Pseudomonas aeruginosa, ATCC27853, read-out: MIC APAE001, APAE001 is ATCC27853
Listed molecules paired with reported MIC

Check out these entries, answers already filled in.
> print(dat)
                           molecular.string         result
1  C[C@@H](N)[C@H](NC(=O)c1ccc(C#Cc2ccc(CN3CCN(S(C)(=O)=O)CC3)cc2)cc1)C(=O)NO  2 to 16 µg/mL
2  C[C@@H](O)[C@H](NC(=O)c1ccc(C#Cc2ccc(O)cc2)cc1)C(=O)NO      < 2 µg/mL
3  C[C@H](N)[C@H](NC(=O)c1ccc(C#Cc2ccc(CN3CCOCC3)cc2)cc1)C(=O)NO      < 2 µg/mL
4  C[C@@H](N)[C@H](NC(=O)c1ccc(C#Cc2ccc(CN(C)Cc3cccnc3)cc2)cc1)C(=O)NO  2 to 16 µg/mL

Prompt: Lab note: APAE001 (ATCC27853) assay, enter MIC for "CC(C)(O)[C@H](NC(=O)c1ccc(C#C/C=C/c2ccc(CO)cc2)cc1)C(=O)NO" here
Response: < 2 µg/mL

---

Listed molecules paired with reported MIC
- Tested on: AABA1060 (clinical isolate of Acinetobacter baumannii)
- test protocol: MIC broth microdilution, AABA1060
- Format: cell-based
- assay conditions: Acinetobacter baumannii, read-out: MIC AABA1060

Check out these entries, answers already filled in.
> print(dat)
                           molecular.string          result
1  C[C@@H](N)[C@H](NC(=O)c1ccc(C#Cc2ccc(CN3CCN(C)CC3)cc2)cc1)C(=O)NO  16 to 64 µg/mL
2  CC(C)(O)[C@H](NC(=O)c1ccc(C#C/C=C/c2ccc(CNC3CC3)cc2)cc1)C(=O)NO   2 to 16 µg/mL

We next turn to a different molecule, shown below.
Prompt: Report MIC for "O=C(CNC1CC1)NC[C@H](NC(=O)c1ccc(C#CC#Cc2ccccc2)cc1)C(=O)NO"
Response: 16 to 64 µg/mL

---

- Tested on: ASAU001 (laboratory strain of S. aureus, ATCC29213)
- test protocol: MIC broth microdilution, ASAU001
- Type: cell-based
- assay conditions: Staphylococcus aureus, ATCC29213, read-out: MIC ASAU001
readout: MIC

Check out these entries, answers already filled in.
> print(dat)
                                   compound          result
1  CCCC#CC#Cc1ccc(C(=O)N[C@H](C(=O)NO)[C@@H](C)N)cc1 [Example 91-8]   2 to 16 µg/mL
2  O=C(NO)[C@@H](Cc1ccccc1)NS(=O)(=O)c1ccc(C#Cc2ccc(CN3CCOCC3)cc2)cc1 [Example 62-4]      > 64 µg/mL
3  O=C(NC(C(=O)NO)C1(O)CC1)c1ccc(C#Cc2ccc(CN3CCOCC3)cc2)cc1 (stereo not shown) [Example 137-24]  16 to 64 µg/mL
4  O=C(N[C@H](C(=O)NO)C1CCS(=O)(=O)CC1)c1ccc(C#Cc2ccc(CN3CCOCC3)cc2)cc1 [Example 67-9]      > 64 µg/mL

Prompt: Report MIC for C[C@@H](NC(=O)CNC1CC1)[C@H](NC(=O)c1ccc(C#Cc2ccc(CO)cc2)cc1)C(=O)NO [Example 137-3]
Response: 16 to 64 µg/mL

Prompt: Report MIC for C[C@@H](N)[C@H](NC(=O)c1ccc(C#Cc2ccc(CN3CCOCC3)cc2)cc1)C(=O)O [Example 117-2]
Response: > 64 µg/mL

Prompt: Report MIC for CC(C)(O)[C@H](NC(=O)c1ccc(C#C/C=C/c2ccccc2)cc1)C(=O)NO [Example 104-3]
Response: 16 to 64 µg/mL

Prompt: Report MIC for CC(C)OCc1ccc(C#Cc2ccc(C(=O)N[C@H](C(=O)NO)[C@@H](C)N)cc2)cc1 [Example 124-2]
Response: 16 to 64 µg/mL

Prompt: Report MIC for CC(C)(O)[C@H](NC(=O)c1ccc(C#Cc2ccc(CN3CCCOCC3)cc2)cc1)C(=O)NO [Example 122-8]
Response: 16 to 64 µg/mL

Prompt: Report MIC for CC(C)(N)[C@H](NC(=O)c1ccc(C#CC#Cc2ccc(CNC3CC3)cc2)cc1)C(=O)NO [Example 87-4]
Response: 16 to 64 µg/mL

Prompt: Report MIC for C[C@@H](N)[C@H](NC(=O)c1ccc(C#CC#CCC2CC2)cc1)C(=O)NO [Example 91-27]
Response: 16 to 64 µg/mL

Prompt: Report MIC for C[C@H](NCC(=O)N[C@H](C)[C@H](NC(=O)c1ccc(C#Cc2ccccc2)cc1)C(=O)NO)c1ccccc1 [Example 132-5]
Response: 16 to 64 µg/mL

---

- Test system: ASAU001 (laboratory strain of S. aureus, ATCC29213)
- test protocol: MIC broth microdilution, ASAU001
- Format: cell-based
- assay conditions: Staphylococcus aureus, ATCC29213, read-out: MIC ASAU001
- Protocol: Bacterial isolates were cultivated from −70° C. frozen stocks by overnight passages at 35° C. in ambient air on Mueller-Hinton agar (Beckton Dickinson, Franklin Lakes, N.J.). […] Minimum Inhibitory Concentrations (MICs) were determined by the broth microdilution method in accordance with the Clinical and Laboratory Standards Institute (CLSI) guidelines. […]
readout: MIC

> print(dat)
                                   molecule          result
1  CCOCc1ccc(C#Cc2ccc(C(=O)N[C@H](C(=O)NO)C(C)(C)N)cc2)cc1 [Example 126-1]  16 to 64 µg/mL

Prompt: Report MIC for C[C@@H](O)[C@H](NC(=O)c1ccc(C#C/C=C/c2ccncc2)cc1)C(=O)NO [Example 106-1]
Response: 16 to 64 µg/mL

Prompt: Report MIC for CC(C)(N)[C@H](NC(=O)c1ccc(C#CC#CC2CCNCC2)cc1)C(=O)NO [Example 137-23]
Response: 16 to 64 µg/mL

Prompt: Report MIC for C[C@@H](N)[C@H](NC(=O)c1ccc(C#Cc2ccc(CNCC(C)(C)C)cc2)cc1)C(=O)NO [Example 118-4]
Response: > 64 µg/mL

Prompt: Report MIC for C[C@@H](O)[C@H](NC(=O)c1ccc(/C=C/C#Cc2ccc(CO)cc2)cc1)C(=O)NO [Example 112-3]
Response: 16 to 64 µg/mL

Prompt: Report MIC for C[C@@H](O)[C@H](NC(=O)c1ccc(C#CC#CC2CC2)cc1)C(=O)NO [Example 91-5]
Response: 16 to 64 µg/mL

Prompt: Report MIC for C[C@@H](O)[C@H](NC(=O)c1ccc(Sc2ccc(CN3CCOCC3)cc2)cc1)C(=O)NO [Example 47-5]
Response: > 64 µg/mL

Prompt: Report MIC for C[C@@H](O)[C@H](NC(=O)c1ccc(C#CC#Cc2ccncc2)cc1)C(=O)NO [Example 137-19]
Response: 16 to 64 µg/mL

Prompt: Report MIC for C[C@@H](N)[C@H](NC(=O)c1ccc(C#C/C=C/c2cccnc2)cc1)C(=O)NO [Example 106-4]
Response: 16 to 64 µg/mL

Prompt: Report MIC for CC(C)(O)[C@H](NC(=O)c1ccc(C#CC#Cc2ccc(CN3CCOCC3)cc2)cc1)C(=O)NO [Example 86-4]
Response: 16 to 64 µg/mL

Prompt: Report MIC for CC(C)[C@H](NC(=O)c1ccc(/C=C/C#Cc2ccc(CN3CCOCC3)cc2)cc1)C(=O)NO [Example 110-2]
Response: > 64 µg/mL

Prompt: Report MIC for CC(C)(N)[C@H](NC(=O)c1ccc(C#CC#CC2CC2)cc1)C(=O)NO [Example 91-12]
Response: 2 to 16 µg/mL

Prompt: Report MIC for O=C(N[C@H](C(=O)NO)C1CCOCC1)c1ccc(/C=C/C#Cc2ccc(CN3CCOCC3)cc2)cc1 [Example 110-4]
Response: 16 to 64 µg/mL

Prompt: Report MIC for NC[C@H](NC(=O)c1ccc(C#CC#Cc2ccc(CO)cc2)cc1)C(=O)NO [Example 82-2]
Response: 16 to 64 µg/mL

Prompt: Report MIC for C[C@@H](N)[C@H](NC(=O)c1ccc(C#Cc2ccc(CNC3CCCC3)cc2)cc1)C(=O)NO [Example 118-6]
Response: 16 to 64 µg/mL

Prompt: Report MIC for C[C@@H](N)[C@H](NC(=O)c1ccc(C#CC#CC2CCCCC2)cc1)C(=O)NO [Example 91-4]
Response: 2 to 16 µg/mL

Prompt: Report MIC for O=C(N[C@H](C(=O)NO)C1CC1)c1ccc(/C=C/C#Cc2ccc(CN3CCOCC3)cc2)cc1 [Example 110-9]
Response: > 64 µg/mL
